Ref: paper PMC9911399

# tested.on: T1, RBFOX1 RRM RbFoxmut (Fox-RRM*) (Homo sapiens, UniProt Q9NWB1 109-208, R118D;E147R;N151S;E152T)
# T1 sequence: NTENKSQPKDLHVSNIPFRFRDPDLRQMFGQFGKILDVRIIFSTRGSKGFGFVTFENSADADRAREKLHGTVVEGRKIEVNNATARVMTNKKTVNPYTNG
# assay.method.text: EMSA; HiTS-Eq, 1 nM pool, 10 min; buffer printed only for the single-RNA assays: 10 mM Tris pH 7.5, 150 mM NaCl, 3.4 mM EDTA, 0.001% NP-40, 30 C
# condition.info: tags: His6 N-terminal (pET28a); label: 5' 32P
Over roughly 16,000 sequences, “ka relative to ugcaugu” has its median near 0.096; the highest 2% begin near 0.35. The full list was thinned out, with the highest values kept by preference.
For each record, write down the corresponding binding signal.

Solved entries:
CCUACGU (DNA:RNA) RNA: GGGAGACCGGAAUUCAGAUUGUCCCCUACGUUUAAAUCCCGUCGUAGCCACCA DNA 1: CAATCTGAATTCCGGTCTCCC DNA 2: TGGTGGCTACGACGGGATT    0.146 KA relative to UGCAUGU
CAAGUGG (DNA:RNA) RNA: GGGAGACCGGAAUUCAGAUUGUCCCAAGUGGUUAAAUCCCGUCGUAGCCACCA DNA 1: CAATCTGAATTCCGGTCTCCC DNA 2: TGGTGGCTACGACGGGATT    0.0554 KA relative to UGCAUGU
UGGAUGG (DNA:RNA) RNA: GGGAGACCGGAAUUCAGAUUGUCCUGGAUGGUUAAAUCCCGUCGUAGCCACCA DNA 1: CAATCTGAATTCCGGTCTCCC DNA 2: TGGTGGCTACGACGGGATT    0.332 KA relative to UGCAUGU
CGGAUCG (DNA:RNA) RNA: GGGAGACCGGAAUUCAGAUUGUCCCGGAUCGUUAAAUCCCGUCGUAGCCACCA DNA 1: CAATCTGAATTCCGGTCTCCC DNA 2: TGGTGGCTACGACGGGATT    0.331 KA relative to UGCAUGU
GUAUAUG (DNA:RNA) RNA: GGGAGACCGGAAUUCAGAUUGUCCGUAUAUGUUAAAUCCCGUCGUAGCCACCA DNA 1: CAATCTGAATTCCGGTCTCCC DNA 2: TGGTGGCTACGACGGGATT    0.199 KA relative to UGCAUGU
UGGAGAC (DNA:RNA) RNA: GGGAGACCGGAAUUCAGAUUGUCCUGGAGACUUAAAUCCCGUCGUAGCCACCA DNA 1: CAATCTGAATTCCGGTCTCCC DNA 2: TGGTGGCTACGACGGGATT    0.0876 KA relative to UGCAUGU
GGAUCCG (DNA:RNA) RNA: GGGAGACCGGAAUUCAGAUUGUCCGGAUCCGUUAAAUCCCGUCGUAGCCACCA DNA 1: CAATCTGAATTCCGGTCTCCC DNA 2: TGGTGGCTACGACGGGATT    0.153 KA relative to UGCAUGU
CGAUAUG (DNA:RNA) RNA: GGGAGACCGGAAUUCAGAUUGUCCCGAUAUGUUAAAUCCCGUCGUAGCCACCA DNA 1: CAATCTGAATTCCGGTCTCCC DNA 2: TGGTGGCTACGACGGGATT    0.159 KA relative to UGCAUGU

State the recorded binding signal for every item in the following list.
1. GGGAUUG (DNA:RNA) RNA: GGGAGACCGGAAUUCAGAUUGUCCGGGAUUGUUAAAUCCCGUCGUAGCCACCA DNA 1: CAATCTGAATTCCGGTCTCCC DNA 2: TGGTGGCTACGACGGGATT
2. CGAUCGA (DNA:RNA) RNA: GGGAGACCGGAAUUCAGAUUGUCCCGAUCGAUUAAAUCCCGUCGUAGCCACCA DNA 1: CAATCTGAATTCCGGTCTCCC DNA 2: TGGTGGCTACGACGGGATT
3. AGAUCGU (DNA:RNA) RNA: GGGAGACCGGAAUUCAGAUUGUCCAGAUCGUUUAAAUCCCGUCGUAGCCACCA DNA 1: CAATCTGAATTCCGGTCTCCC DNA 2: TGGTGGCTACGACGGGATT
4. CGGACUG (DNA:RNA) RNA: GGGAGACCGGAAUUCAGAUUGUCCCGGACUGUUAAAUCCCGUCGUAGCCACCA DNA 1: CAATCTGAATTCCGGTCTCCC DNA 2: TGGTGGCTACGACGGGATT
5. CCGCCUC (DNA:RNA) RNA: GGGAGACCGGAAUUCAGAUUGUCCCCGCCUCUUAAAUCCCGUCGUAGCCACCA DNA 1: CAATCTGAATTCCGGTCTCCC DNA 2: TGGTGGCTACGACGGGATT
6. AAAUCUG (DNA:RNA) RNA: GGGAGACCGGAAUUCAGAUUGUCCAAAUCUGUUAAAUCCCGUCGUAGCCACCA DNA 1: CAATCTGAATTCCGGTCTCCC DNA 2: TGGTGGCTACGACGGGATT
7. GUUAUCA (DNA:RNA) RNA: GGGAGACCGGAAUUCAGAUUGUCCGUUAUCAUUAAAUCCCGUCGUAGCCACCA DNA 1: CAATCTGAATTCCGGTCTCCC DNA 2: TGGTGGCTACGACGGGATT

## Output
["0.282 KA relative to UGCAUGU", "0.0748 KA relative to UGCAUGU", "0.105 KA relative to UGCAUGU", "0.353 KA relative to UGCAUGU", "0.0617 KA relative to UGCAUGU", "0.0533 KA relative to UGCAUGU", "0.18 KA relative to UGCAUGU"]

State the recorded binding signal for every item in the following list.
1. GUCAUCA (DNA:RNA) RNA: GGGAGACCGGAAUUCAGAUUGUCCGUCAUCAUUAAAUCCCGUCGUAGCCACCA DNA 1: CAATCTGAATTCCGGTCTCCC DNA 2: TGGTGGCTACGACGGGATT
2. GCCGAGU (DNA:RNA) RNA: GGGAGACCGGAAUUCAGAUUGUCCGCCGAGUUUAAAUCCCGUCGUAGCCACCA DNA 1: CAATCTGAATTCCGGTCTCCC DNA 2: TGGTGGCTACGACGGGATT

## Output
1. 0.129 KA relative to UGCAUGU
2. 0.123 KA relative to UGCAUGU
